Values from patent US11339151B2

Measured IC50, listed per entry for reference.
TEST_TARGET: hERG channel (Homo sapiens (Human), UniProt Q12809)
Sequence (Q12809 whole entry): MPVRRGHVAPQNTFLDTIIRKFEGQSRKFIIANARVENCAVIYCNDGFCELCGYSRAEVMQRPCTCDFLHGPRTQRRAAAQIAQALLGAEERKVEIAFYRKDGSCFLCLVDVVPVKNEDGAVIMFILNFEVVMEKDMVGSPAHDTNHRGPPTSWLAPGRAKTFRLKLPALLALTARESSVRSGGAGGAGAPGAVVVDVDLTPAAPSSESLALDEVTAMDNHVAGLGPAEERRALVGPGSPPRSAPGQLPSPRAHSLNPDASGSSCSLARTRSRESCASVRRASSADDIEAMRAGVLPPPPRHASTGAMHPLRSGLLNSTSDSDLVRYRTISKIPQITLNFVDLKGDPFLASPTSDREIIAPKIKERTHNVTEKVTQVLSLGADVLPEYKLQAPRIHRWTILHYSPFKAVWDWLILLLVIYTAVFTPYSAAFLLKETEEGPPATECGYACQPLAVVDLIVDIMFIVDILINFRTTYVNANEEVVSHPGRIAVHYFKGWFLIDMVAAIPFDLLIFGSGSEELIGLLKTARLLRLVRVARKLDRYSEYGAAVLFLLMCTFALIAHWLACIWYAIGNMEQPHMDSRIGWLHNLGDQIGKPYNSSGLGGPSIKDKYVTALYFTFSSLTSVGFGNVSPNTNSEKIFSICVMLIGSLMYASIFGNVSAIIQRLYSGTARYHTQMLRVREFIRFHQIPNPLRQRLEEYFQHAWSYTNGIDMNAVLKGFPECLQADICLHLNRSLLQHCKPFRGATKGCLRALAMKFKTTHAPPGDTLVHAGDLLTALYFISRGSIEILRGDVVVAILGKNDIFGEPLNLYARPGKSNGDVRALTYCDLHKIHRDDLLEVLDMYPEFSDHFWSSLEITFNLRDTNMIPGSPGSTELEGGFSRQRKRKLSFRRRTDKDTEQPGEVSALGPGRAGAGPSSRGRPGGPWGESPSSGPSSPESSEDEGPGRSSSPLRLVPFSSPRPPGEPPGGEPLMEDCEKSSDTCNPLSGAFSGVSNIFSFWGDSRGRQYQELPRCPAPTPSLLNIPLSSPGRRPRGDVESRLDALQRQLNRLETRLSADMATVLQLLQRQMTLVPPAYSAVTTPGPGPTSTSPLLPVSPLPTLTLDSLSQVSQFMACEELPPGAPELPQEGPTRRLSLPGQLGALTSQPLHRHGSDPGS
PROCEDURE_TEXT: Test 5: inhibitory activity for hERG channel (whole cell patch clamp, hERG-CHO cells)
Format: cell-based
ASSAY_CONTEXT: hERG-CHO cells, auto patch clamp

Sample records with IC50:
CCN(CCN1CCC(c2noc3cc(F)ccc23)CC1)C(=O)[C@H](C)O    4.8 µM
CCN(CCN1CCC(c2noc3cc(F)ccc23)CC1)C(=O)[C@@H](C)O    4.8 µM
CCN(CCN1CCC(c2noc3ccc(C)cc23)CC1)C(=O)[C@H](C)O    9.6 µM
CCN(CCN1CCC(c2noc3cc(F)ccc23)CC1)C(=O)C(O)COC (stereo not drawn)    4.1 µM
CCN(CCN1CCC(c2noc3cc(F)c(C)cc23)CC1)S(=O)(=O)CCO    > 10 µM
CC(O)C(=O)N(CCN1CCC(c2noc3cc(F)ccc23)CC1)C(C)C (stereo not drawn)    3.1 µM
CCN(CCCN1CCC(c2noc3cc(F)ccc23)CC1)S(=O)(=O)C(C)CO (stereo not drawn)    2.1 µM
CCN(CCN1CCC(c2noc3ccc(F)cc23)CC1)C(=O)[C@H](C)O    > 10 µM

Write down IC50 measured for item CCN(CCN1CCC(c2c[nH]c3ccccc23)CC1)C(=O)CCO
5.4 µM

Write down IC50 measured for item CCN(CCN1CCC(c2noc3cc(F)ccc23)CC1)C(=O)C(C)(C)O
1.5 µM

Write down IC50 measured for item CCN(CCN1CCC(c2noc3cc(F)ccc23)CC1)C(=O)C1CNCC1O (stereo not drawn)
> 10 µM

Write down IC50 measured for item CCN(CCN1CCC(n2ncc3cc(F)ccc32)CC1)S(=O)(=O)C(C)CO (stereo not drawn)
> 10 µM

Write down IC50 measured for item CCN(CCN1CCC(c2noc3cc(F)ccc23)CC1)C(=O)C1(O)CCNC1 (stereo not drawn)
> 10 µM

Write down IC50 measured for item CCN(CCN1CCN(c2noc3cc(F)ccc23)CC1)C(=O)C(C)O (stereo not drawn)
> 10 µM

Write down IC50 measured for item CCN(CCN1CCC(c2noc3cc(F)ccc23)CC1)S(=O)(=O)CCO
6.9 µM

Write down IC50 measured for item CCN(CCN1CCC(c2c[nH]c3ccccc23)CC1)C(=O)[C@H](C)O
> 10 µM

Write down IC50 measured for item CC(C)N(CCN1CCC(c2noc3cc(F)ccc23)CC1)C(=O)CCO
4.3 µM

Write down IC50 measured for item CC(O)C(=O)N(CCN1CCC(c2noc3cc(F)ccc23)CC1)CC1CC1 (stereo not drawn)
1.2 µM

Write down IC50 measured for item CCN(CCN1CCC(c2noc3cc(F)ccc23)CC1)C(=O)C1CN(C(C)=O)CCC1O (stereo not drawn)
6.7 µM

Write down IC50 measured for item CCN(CCN1CCC(c2noc3cc(F)ccc23)CC1)C(=O)C(O)CCC(=O)OC (stereo not drawn)
1.1 µM

Write down IC50 measured for item CCN(CCN1CCC(n2ncc3cc(F)ccc32)CC1)S(=O)(=O)CCO
14.5 µM

Write down IC50 measured for item CCN(CCN1CCC(c2noc3cc(F)ccc23)CC1)C(=O)CO
2.2 µM

====

TEST_TARGET: human D2 receptor (Homo sapiens (Human), UniProt P14416)
Sequence (P14416 whole entry): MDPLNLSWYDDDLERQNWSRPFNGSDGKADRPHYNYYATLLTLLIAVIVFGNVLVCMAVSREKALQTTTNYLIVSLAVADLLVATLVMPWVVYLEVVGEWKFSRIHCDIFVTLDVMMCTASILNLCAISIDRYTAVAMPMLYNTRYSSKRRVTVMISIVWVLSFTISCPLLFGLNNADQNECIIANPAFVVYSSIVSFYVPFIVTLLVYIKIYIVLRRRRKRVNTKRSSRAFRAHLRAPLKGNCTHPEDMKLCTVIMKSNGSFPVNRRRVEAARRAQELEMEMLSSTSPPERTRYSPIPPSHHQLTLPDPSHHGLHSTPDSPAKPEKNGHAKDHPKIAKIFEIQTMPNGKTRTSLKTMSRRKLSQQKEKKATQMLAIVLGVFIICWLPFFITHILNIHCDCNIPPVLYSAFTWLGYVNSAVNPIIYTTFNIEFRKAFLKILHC
PROCEDURE_TEXT: Test 1: binding activity for human D2 receptor ([3H]Spiperone, CHO cell membrane fraction)
ASSAY_CONTEXT: [3H]Spiperone, room temperature 60 minutes
MEASUREMENT_LABEL: Ki (nM)
Kindly answer with a numeric value in nM, unit omitted.

CCN(CCN1CCC(c2noc3cc(F)ccc23)CC1)C(=O)C(O)COC (centres unmarked) [Example 18]    198
CCN(CCN1CCC(c2noc3cc(F)ccc23)CC1)S(=O)(=O)CCO [Example 51]    309

Find the measured Ki of CCN(CCN1CCC(c2noc3ccccc23)CC1)C(=O)C(C)O (centres unmarked) [Example 25] with human D2 receptor (Homo sapiens (Human), UniProt P14416) as test system.
1390

Find the measured Ki of CCN(CCN1CCC(c2noc3cc(F)ccc23)CC1)C(=O)C(O)C(C)C (centres unmarked) [Example 8] with human D2 receptor (Homo sapiens (Human), UniProt P14416) as test system.
294

Find the measured Ki of CCN(CCN1CCC(c2noc3cc(F)ccc23)CC1)C(=O)C1(O)CCNC1 (centres unmarked) [Example 70] with human D2 receptor (Homo sapiens (Human), UniProt P14416) as test system.
52

Find the measured Ki of CCN(CCN1CCC(c2noc3cc(F)ccc23)CC1)C(=O)C1CN(C(C)=O)CC1O (centres unmarked) [Example 73] with human D2 receptor (Homo sapiens (Human), UniProt P14416) as test system.
205

Find the measured Ki of CCN(CCN1CCC(c2noc3cc(F)ccc23)CC1)C(=O)C(O)C(F)(F)F (centres unmarked) [Example 34] with human D2 receptor (Homo sapiens (Human), UniProt P14416) as test system.
247

Find the measured Ki of CCN(CCN1CCC(c2noc3cc(F)ccc23)CC1)C(=O)C(O)CN (centres unmarked) [Example 65] with human D2 receptor (Homo sapiens (Human), UniProt P14416) as test system.
195

Find the measured Ki of CCN(CCN1CCC(c2noc3cc(F)ccc23)CC1)C(=O)C(C)(C)O [Example 6] with human D2 receptor (Homo sapiens (Human), UniProt P14416) as test system.
278

Find the measured Ki of CCN(CCN1CCC(c2noc3ccccc23)CC1)S(=O)(=O)CCO [Example 61] with human D2 receptor (Homo sapiens (Human), UniProt P14416) as test system.
514

Find the measured Ki of CCN(CCN1CCC(c2c[nH]c3ccccc23)CC1)S(=O)(=O)CCO [Example 57] with human D2 receptor (Homo sapiens (Human), UniProt P14416) as test system.
210

Find the measured Ki of CCN(CCN1CCC(c2noc3cc(F)ccc23)CC1)C(=O)C(C)(C)CO [Example 7] with human D2 receptor (Homo sapiens (Human), UniProt P14416) as test system.
79

Find the measured Ki of CC[C@@H](O)C(=O)N(CC)CCN1CCC(c2noc3cc(F)ccc23)CC1 [Example 29] with human D2 receptor (Homo sapiens (Human), UniProt P14416) as test system.
146

====

TEST_TARGET: human 5-HT7 receptor (Homo sapiens (Human))
Sequence (P34969 whole entry): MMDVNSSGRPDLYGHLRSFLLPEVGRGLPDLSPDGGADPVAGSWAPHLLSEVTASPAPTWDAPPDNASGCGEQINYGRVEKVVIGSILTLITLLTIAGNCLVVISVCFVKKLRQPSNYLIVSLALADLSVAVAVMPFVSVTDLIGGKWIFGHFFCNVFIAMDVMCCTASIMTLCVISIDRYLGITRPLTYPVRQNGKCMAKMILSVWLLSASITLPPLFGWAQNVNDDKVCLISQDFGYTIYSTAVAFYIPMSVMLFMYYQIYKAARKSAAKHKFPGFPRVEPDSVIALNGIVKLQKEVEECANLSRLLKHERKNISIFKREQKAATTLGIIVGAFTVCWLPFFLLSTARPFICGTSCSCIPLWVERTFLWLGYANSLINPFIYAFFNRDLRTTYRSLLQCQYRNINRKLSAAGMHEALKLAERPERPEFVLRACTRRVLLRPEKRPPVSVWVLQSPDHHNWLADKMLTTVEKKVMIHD
PROCEDURE_TEXT: Test 2: antagonist activity for human 5-HT7 receptor (aequorin luminescence, CHO-K1 cells)
Format: cell-based
ASSAY_CONTEXT: Gα16
Description: Test 2: Evaluation of Antagonist Activity for Human 5-HT2A Receptor and Human 5-HT7 Receptor Aequorin, Gα 16 protein, and each receptor were transiently expressed in CHO-K1 cells (Chinese hamster ovary). […] Each compound dissolved in DMSO was added thereto, and changes in luminescence were measured by FDSS/μCELL drug discovery screening support system (Hamamatsu Photonics K.K.). […]
Measured IC50, listed per entry for reference.
Kindly answer with a numeric value in µM, unit omitted.

Sample records with IC50:
CCN(CCN1CCC(c2noc3cc(F)ccc23)CC1)C(=O)C(F)(F)CO    0.082
CCN(CCN1CCC(c2noc3cc(F)ccc23)CC1)C(=O)CCO    0.066
CCN(CCN1CCC(c2noc3cc(F)ccc23)CC1)C(=O)C1CCCCC1O (stereo not drawn)    0.059
CCN(CCCN1CCC(c2noc3cc(F)ccc23)CC1)S(=O)(=O)C(C)CO (stereo not drawn)    0.006
CCN(CCN1CCC(c2noc3ccccc23)CC1)C(=O)C(C)O (stereo not drawn)    0.026

Write down IC50 measured for item CCN(CCN1CCC(c2c[nH]c3ccccc23)CC1)C(=O)[C@@H](C)O
0.016

Write down IC50 measured for item CCN(CCN1CCC(c2noc3cc(Cl)ccc23)CC1)S(=O)(=O)CCO
0.072

Write down IC50 measured for item CCN(CCN1CCC(n2ncc3cc(F)ccc32)CC1)C(=O)CCO
0.094

Write down IC50 measured for item CCN(CCN1CCC(c2noc3cc(F)ccc23)CC1)C(=O)C(C)CO (stereo not drawn)
0.066

Write down IC50 measured for item CCCN(CCN1CCC(c2noc3cc(F)ccc23)CC1)C(=O)C(C)O (stereo not drawn)
0.009

Write down IC50 measured for item CCN(CCN1CCC(c2noc3cc(F)ccc23)CC1)C(=O)CC(C)O (stereo not drawn)
0.009

Write down IC50 measured for item CCN(CCN1CCC(c2noc3cc(F)ccc23)CC1)C(=O)C1CN(C(C)=O)CC1O (stereo not drawn)
0.081

Write down IC50 measured for item CCN(CCN1CCC(c2noc3cc(F)ccc23)CC1)C(=O)C1CN(C)CCC1O (stereo not drawn)
0.065

Write down IC50 measured for item CCN(CCN1CCC(c2noc3ccc(C)cc23)CC1)C(=O)[C@H](C)O
0.082

Write down IC50 measured for item CCN(CCN1CCC(c2noc3cc(F)ccc23)CC1)C(=O)C(C)(C)CO
0.011
